- study-target: PD-L1 protein on the surface of MC38-hPDL1 tumor cells (Homo sapiens, UniProt Q9NZQ7)
- Construct: expressed in transfected cells; host or cells: MC38-hPDL1 (mouse colon cancer cells)
- Sequence (Q9NZQ7 19-290): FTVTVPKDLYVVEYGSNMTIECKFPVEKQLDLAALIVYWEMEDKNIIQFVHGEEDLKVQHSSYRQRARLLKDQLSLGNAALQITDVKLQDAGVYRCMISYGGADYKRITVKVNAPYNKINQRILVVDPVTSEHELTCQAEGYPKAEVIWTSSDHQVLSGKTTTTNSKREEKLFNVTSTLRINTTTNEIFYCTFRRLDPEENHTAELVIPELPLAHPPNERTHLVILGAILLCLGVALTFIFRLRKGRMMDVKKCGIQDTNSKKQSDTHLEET
- procedure-text: Induction of endocytosis of PD-L1 on the surface of tumor cells (flow cytometry)
- Type: cell-based
- condition-label: MC38-hPDL1 cells, 16 hours incubation; read-out: MC38 maximum endocytosis rate
Quick rule for you: Emax under 90% gets T, anything else gets F.

These recorded examples may help you get a feel for the data.
CCC(=O)N1CC2(CN(Cc3ccc(-c4cccc(-c5cccc(NC(=O)c6nc7c(n6C)CCN(C)C7)c5Cl)c4Cl)nc3OC)C2)C1 [Embodiment 188]: F
COc1cc(C(=O)Nc2cccc(-c3cccc(NC(=O)c4nc5c(n4C)CCN(C)C5)c3Cl)c2C)ncc1CNCCNC(C)=O [Embodiment 40]: F
COc1nc(-c2cccc(-c3cccc(NC(=O)c4nc5c(n4C)CCN(C)C5)c3Cl)c2Cl)ccc1CN[C@H]1CCOC[C@@H]1O (relative stereo) [Embodiment 175]: F
COc1nc(-c2cccc(-c3cccc(NC(=O)c4nc5c(n4C)CCN(C)C5)c3Cl)c2Cl)ccc1CNC1CN(C(C)=O)C1 [Embodiment 179]: F

Q: Is it true that Emax reported for COc1nc(-c2cccc(-c3cccc(NC(=O)c4nc5c(n4C)CCN(C)C5)c3Cl)c2Cl)ccc1CN1CC2CC(C1)N2C(=O)CC#N [Embodiment 208] is less than 90%?
Result: T

Q: Given COc1nc(-c2cccc(-c3cccc(NC(=O)c4nc5c(n4C)CCN(C)C5)c3Cl)c2Cl)ncc1CN1CC(CO)C1 [Embodiment 223] , is recorded Emax strictly lower than 90%?
Result: F

Q: Determine whether this molecule shows Emax lower than 90% (ties excluded): COc1nc(-c2cccc(-c3cccc(NC(=O)c4nc5c(n4C)CCN(C)C5)c3Cl)c2Cl)ccc1CN1CCN(C(C)=O)CC1 [Embodiment 203]
Result: F

Q: Hello, I'm reviewing records and need to know if Emax of COc1nc(-c2cccc(-c3cccc(NC(=O)c4nc5c(n4C)CCN(C)C5)c3Cl)c2Cl)ccc1CN1CCC2(CC1)CN(C(C)=O)C2 [Embodiment 197] is below 90%. Could you check?
Result: F

Q: Field: below-cutoff. Rule: recorded Emax strictly less than 90%. Subject: CCn1c(C(=O)Nc2cccc(-c3cccc(-c4ccc(CN[C@H]5CCOC[C@@H]5O)c(OC)n4)c3Cl)c2Cl)nc2c1CCN(C)C2 (relative stereo) [Embodiment 235]
Result: F

Q: Answer whether the molecule COc1nc(-c2cccc(-c3cccc(NC(=O)c4nc5c(n4C)CCN(C)C5)c3Cl)c2Cl)ccc1CN1CC2(CC(NC(C)=O)C2)C1 [Embodiment 234] has Emax strictly less than 90%
Result: F

Q: Check if Emax falls below 90% for COc1cc(C(=O)Nc2cccc(-c3cccc(NC(=O)c4nc5c(n4C)CCN(C)C5)c3Cl)c2C)ncc1CNc1cc(C)ncn1 [Embodiment 91] .
Result: T

Q: Field: below-cutoff. Rule: recorded Emax strictly less than 90%. Subject: COc1cc(C(=O)Nc2cccc(-c3cccc(NC(=O)c4nc5c(n4C)CCN(C)C5)c3Cl)c2C)ncc1CO [Embodiment 49]
Result: F

----------
- procedure-text: Pharmacokinetics test in Balb/C mice
- Format: in vivo
- condition-label: male, mouse, po, p.o. 5 mg/kg, plasma, read-out: Curve area AUC0−t
Would you mind sorting the entries by AUC(0-t) according to these classes? lower bin = under 600 ng·h/mL, middle bin = from 600 ng·h/mL up to 900 ng·h/mL, upper bin = 900 ng·h/mL and over

COc1nc(-c2cccc(-c3cccc(NC(=O)c4nc5c(n4C)CCN(C)C5)c3Cl)c2Cl)ccc1CNC[C@H](C)O: middle bin

Q: Category of COc1nc(-c2cccc(-c3cccc(NC(=O)c4nc5c(n4C)CCN(C)C5)c3Cl)c2Cl)ccc1CN1CC2(CCC(=O)N2)C1 , please.
Result: middle bin

Q: Just checking, what class would you give COc1nc(-c2cccc(-c3cccc(NC(=O)c4nc5c(n4C)CCN(C)C5)c3Cl)c2Cl)ccc1CN1CC(C(=O)N(C)C)C1 here?
Result: upper bin

Q: // bin(item) where item = COc1nc(-c2cccc(-c3cccc(NC(=O)c4nc5c(n4C)CCN(C)C5)c3Cl)c2Cl)cnc1CN1CC2(C1)CN(C(C)=O)C2
Result: upper bin

----------
- procedure-text: Pharmacokinetics test in Balb/C mice
- Type: in vivo
- condition-label: male, mouse, po, p.o. 5 mg/kg, plasma, read-out: Drug concentration in plasma Cmax
# Cmax binned as bucket 1 (below 40 ng/mL), bucket 2 (40 ng/mL to below 60 ng/mL), bucket 3 (60 ng/mL or more)

The examples below pair each entry with its known result.
COc1nc(-c2cccc(-c3cccc(NC(=O)c4nc5c(n4C)CCN(C)C5)c3Cl)c2Cl)ccc1CN1CC2(CC(NC(C)=O)C2)C1: bucket 1
COc1nc(-c2cccc(-c3cccc(NC(=O)c4nc5c(n4C)CCN(C)C5)c3Cl)c2Cl)ccc1CNC[C@H](C)O: bucket 1
COc1nc(-c2cccc(-c3cccc(NC(=O)c4nc5c(n4C)CCN(C)C5)c3Cl)c2Cl)ccc1CNC1COC1: bucket 2
COc1nc(-c2cccc(-c3cccc(NC(=O)c4nc5c(n4C)CCN(C)C5)c3Cl)c2Cl)ccc1CN1CC(F)C1: bucket 1
COc1nc(-c2cccc(-c3cccc(NC(=O)c4nc5c(n4C)CCN(C)C5)c3Cl)c2Cl)ccc1CN1CC2(CCC(=O)N2)C1: bucket 2

Q: Which band does COc1nc(-c2cccc(-c3cccc(NC(=O)c4nc5c(n4C)CCN(C)C5)c3Cl)c2Cl)ccc1CN1CC(NC(C)=O)C1 fall in?
Result: bucket 3

----------
Collected Kp values appear next to each entry.
- procedure-text: Pharmacokinetic test of plasma and tumor of tumor-bearing nude mice
- Type: in vivo
- condition-label: female, mouse, tumor/plasma, po; tumor-bearing nude mice, p.o. 30 mg/kg; read-out: Tumor plasma ratio

COc1nc(-c2cccc(-c3cccc(NC(=O)c4nc5c(n4C)CCN(C)C5)c3Cl)c2Cl)ccc1CN[C@H]1CCOC[C@@H]1O (relative stereo): 2.1

The measured Kp associated with COc1nc(-c2cccc(-c3cccc(NC(=O)c4nc5c(n4C)CCN(C)C5)c3Cl)c2Cl)ccc1CN1CC2(C1)CN(C(C)=O)C2 reads 2.8

Form field Kp, entry COc1nc(-c2cccc(-c3cccc(NC(=O)c4nc5c(n4C)CCN(C)C5)c3Cl)c2Cl)ccc1CNC(CO)CO : 2.4

In plain terms, COc1nc(-c2cccc(-c3cccc(NC(=O)c4nc5c(n4C)CCN(C)C5)c3Cl)c2Cl)ccc1CN1CC(O)(CO)C1 has a documented Kp of 2.2

----------
Quick reference: Emax of the listed items.
- study-target: PD-L1 protein on the surface of MC38-hPDL1 tumor cells (Homo sapiens, UniProt Q9NZQ7)
- Construct: expressed in transfected cells; host or cells: MC38-hPDL1 (mouse colon cancer cells)
- procedure-text: Induction of endocytosis of PD-L1 on the surface of tumor cells (flow cytometry)
- Assay type: cell-based
- condition-label: MC38-hPDL1 cells, 16 hours incubation; read-out: MC38 maximum endocytosis rate

Examples with answers:
COc1cc(C(=O)Nc2cccc(-c3cccc(NC(=O)c4nc5c(n4C)CCN(C)C5)c3Cl)c2C)ncc1CNC[C@@H]1CCC(=O)N1: 97%
COc1cc(NCc2cnc(C(=O)Nc3cccc(-c4cccc(NC(=O)c5nc6c(n5C)CCN(CCO)C6)c4Cl)c3C)cc2OC)ccn1: 88%
COc1cc(C(=O)Nc2cccc(-c3cccc(NC(=O)c4nc5c(n4C)CCN(C)C5)c3Cl)c2C)ncc1CN[C@H]1CCCNC1=O: 93%
COc1nc(-c2cccc(-c3cccc(NC(=O)c4nc5c(n4C)CCN(C)C5)c3Cl)c2Cl)ccc1CN[C@@H](CO)C(=O)O: 94%
COc1nc(-c2cccc(-c3cccc(NC(=O)c4nc5c(n4C4CC4)CCN(C)C5)c3Cl)c2Cl)ccc1CN[C@H]1CCOC[C@@H]1O (relative stereo): 94%

For reference, reported Emax for COc1nc(-c2cccc(-c3cccc(NC(=O)c4nc5c(n4C)CCN(C)C5)c3Cl)c2Cl)ccc1CN1C2CC1CN(C(C)=O)C2 stands at 90%

Entry COc1nc(-c2cccc(-c3cccc(NC(=O)c4nc5c(n4C)CCN(C)C5)c3Cl)c2Cl)ccc1CN1CC(O)(CO)C1 ; Emax = 97%

Looking up COc1nc(-c2cccc(-c3cccc(NC(=O)c4nc5c(n4C)CCN(C)C5)c3Cl)c2Cl)ncc1CNCCO , I found its Emax recorded as 95%

Emax for COc1cc(C(=O)Nc2cccc(-c3cccc(NC(=O)c4nc5c(n4C)CCN(C)C5)c3Cl)c2C)ncc1CNc1ccnc(C)c1F is 93%

Quick note, Emax for CNC(=O)CNCc1cnc(C(=O)Nc2cccc(-c3cccc(NC(=O)c4nc5c(n4C)CCN(C)C5)c3Cl)c2C)cc1OC landed at 94%

Value of Emax reported for the molecule COc1nc(-c2cccc(-c3cccc(NC(=O)c4nc5c(n4C)CCN(C)C5)c3Cl)c2Cl)cnc1CN1CC2(C1)CN(C(C)=O)C2 is 97%

// field: Emax; key: COc1nc(-c2cccc(-c3cccc(NC(=O)c4nc5c(n4C)CCN(C)C5)c3Cl)c2Cl)ccc1CN1CC(CO)C1 ; value = 96%

The molecule COc1cc(NCc2cnc(C(=O)Nc3cccc(-c4cccc(NC(=O)c5nc6c(n5C)CCN(C(C)C)C6)c4Cl)c3C)cc2OC)ccn1 showed Emax equal to 81%
